meta.source: patent US20100285145A1

# Assayed Target: human GPR119 (Homo sapiens)
# Test Method Notes: β-Lactamase reporter functional assay (hGPR119 HEK293-CRE beta-lactamase cells)
# Assay type: cell-based
# Design: host or cells: HEK293-CRE beta-lactamase
# Test Conditions: percent of maximal activity relative to standard GPR119 agonist at 10 micromolar
Measure Name: Intrinsic Activity (Human B-lactamase) (%)

| Compound | Unit Spec | Meas Value |
| --- | --- | --- |
| Cc1c(OC2CCN(C(=O)OC(C)C)CC2)ncnc1N1CCc2cc(S(C)(=O)=O)ccc21 [Example 8] | % | 99.2 |
| CC(C)OC(=O)N1CCC(Oc2cc(N3CCc4ncccc43)ncn2)CC1 [Example 12] | % | 121 |
| CC(C)OC(=O)N1C[C@H]2COC[C@@H](C1)[C@H]2Oc1cc(N2CCc3cc(S(C)(=O)=O)ccc32)ncn1 [Example 1] | % | 109 |
| CC(C)OC(=O)N1C[C@H]2COC[C@@H](C1)[C@@H]2Oc1cc(N2CCc3cc(S(C)(=O)=O)ccc32)ncn1 [Example 2] | % | 106 |
| Cc1c(OC2CCN(C(=O)OC(C)C)CC2)ncnc1N1CCc2ncccc21 [Example 13] | % | 97.8 |
| CC(C)OC(=O)N1C[C@H]2COC[C@@H](C1)[C@H]2Oc1ncnc(N2CCc3cc(S(C)(=O)=O)ccc32)c1C#N [Example 5] | % | 100 |
| CC(C)OC(=O)N1CCC(Oc2ncnc(N3CCc4cc(S(C)(=O)=O)ccc43)c2C#N)CC1 [Example 6] | % | 103 |
| CC(C)OC(=O)N1CCC(Oc2cc(N3CCc4cc(C#N)ccc43)ncn2)CC1 [Example 10] | % | 85.8 |
| CC(C)OC(=O)N1CCC(Oc2cc(N3CCc4cc(C(=O)N(C)C)ccc43)ncn2)CC1 [Example 9] | % | 101 |

====

# Assayed Target: human GPR119 (Homo sapiens)
# Sequence (Q8TDV5 1-335): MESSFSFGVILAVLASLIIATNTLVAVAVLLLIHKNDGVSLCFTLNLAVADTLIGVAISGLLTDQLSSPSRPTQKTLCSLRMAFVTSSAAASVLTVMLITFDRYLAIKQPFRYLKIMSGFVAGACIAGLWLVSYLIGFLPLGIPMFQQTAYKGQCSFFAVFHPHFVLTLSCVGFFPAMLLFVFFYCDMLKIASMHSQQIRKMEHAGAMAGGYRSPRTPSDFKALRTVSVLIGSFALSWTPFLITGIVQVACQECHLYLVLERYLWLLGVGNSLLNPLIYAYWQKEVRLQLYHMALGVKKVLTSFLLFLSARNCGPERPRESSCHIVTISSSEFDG
# Test Method Notes: β-Arrestin PathHunter assay (U2OS hGPR119 β-arrestin cells)
# Format: cell-based
# Test Conditions: U2OS hGPR119 β-arrestin cells, 90 min; each line a separate determination; read-out: Human B-arrestin Functional EC50
pEC50: −log10 of the molar value.
We use 8 as the dividing line for pEC50: on or above the line is true (1), below is false (0).

| Molecule | Assayed Target | Discrete Label |
| --- | --- | --- |
| Cc1c(O[C@@H]2[C@@H]3COC[C@H]2CN(C(=O)OC(C)C)C3)ncnc1N1CCc2ncccc21 | human GPR119 (Homo sapiens) | false (0) |
| Cc1c(O[C@H]2CCN(C(=O)OC(C)(C)C)C[C@H]2F)ncnc1N1CCc2ncccc21 (racemic) | human GPR119 (Homo sapiens) | true (1) |
| CC(C)OC(=O)N1CCC(Oc2ncnc(N3CCc4cc(S(C)(=O)=O)ccc43)c2C#N)CC1 | human GPR119 (Homo sapiens) | true (1) |
| CC(C)(C)OC(=O)N1CCC(Oc2cc(N3CCc4cc(S(C)(=O)=O)ccc43)ncn2)C(F)C1 (racemic) | human GPR119 (Homo sapiens) | true (1) |
| Cc1c(OC2CCN(C(=O)OC(C)C)CC2)ncnc1N1CCc2ncccc21 | human GPR119 (Homo sapiens) | false (0) |

====

pEC50 values for the molecules below.
# Assayed Target: UniProtKB Q8TDV5
# Test Method Notes: cAMP HTRF functional assay (hGPR119 HEK-CRE beta-lactamase cells)
# Format: cell-based
# Design: host or cells: HEK293-CRE beta-lactamase
# Test Conditions: HTRF cAMP, 30 min, 400 microM IBMX; each line a separate determination
pEC50: −log10 of the molar value.
Measure Name: pEC50

| Molecule | Measure Name | Censoring Operator | Meas Value |
| --- | --- | --- | --- |
| Cc1c(O[C@H]2CCN(C(=O)OC3(C)CC3)C[C@H]2F)ncnc1N1CCc2ncccc21 (racemic) [Example 19] | pEC50 | = | 7.71 |
| CN(C)C(=O)c1ccc2c(n1)CCN2c1cc(OC2CCN(C(=O)OC3(C)CC3)CC2)ncn1 [Example 33] | pEC50 | = | 5.81 |
| CC1(OC(=O)N2CC[C@H](Oc3cc(N4CCc5nc(C(N)=O)ccc54)ncn3)[C@H](F)C2)CC1 (racemic) [Example 32] | pEC50 | = | 6.56 |
| Cc1c(OC2CCN(C(=O)OC(C)C)CC2)ncnc1N1CCc2cc(S(C)(=O)=O)ccc21 [Example 8] | pEC50 | = | 7.36 |
| CC(C)OC(=O)N1CCC(Oc2cc(N3CCc4cc(C(=O)N(C)C)ccc43)ncn2)CC1 [Example 9] | pEC50 | = | 7.15 |
| CC(C)OC(=O)N1CCC(Oc2cc(N3CCc4cc(S(C)(=O)=O)cnc43)ncn2)CC1 [Example 14] | pEC50 | < | 5.00 |
| Cc1c(O[C@@H]2[C@@H]3COC[C@H]2CN(C(=O)OC(C)C)C3)ncnc1N1CCc2ncccc21 [Example 29] | pEC50 | < | 5.00 |
| CC(C)OC(=O)N1CCC(Oc2cc(N3CCc4cc(S(=O)(=O)CCO)ccc43)ncn2)CC1 [Example 11] | pEC50 | = | 7.00 |

====

Form field: Intrinsic Activity (Human cAMP) (one value per entry).
# Assayed Target: human GPR119 (Homo sapiens, UniProt Q8TDV5)
# Test Method Notes: cAMP HTRF functional assay (hGPR119 HEK-CRE beta-lactamase cells)
# Type: cell-based
# Set-up: host or cells: HEK293-CRE beta-lactamase
# Test Conditions: percent of maximal activity relative to standard GPR119 agonist at 10 micromolar

| Compound | Intrinsic Activity (Human cAMP) [%] |
| --- | --- |
| CC(C)OC(=O)N1CCC(Oc2cc(N3CCc4cc(C#N)ccc43)ncn2)CC1 [Example 10] | 105 |
| Cc1c(O[C@@H]2CCN(C(=O)OC(C)(C)C)C[C@@H]2F)ncnc1N1CCc2nnccc21 [Example 30] | 28 |
| Cc1c(O[C@H]2[C@@H]3COC[C@H]2CN(C(=O)OC(C)(C)C)C3)ncnc1N1CCc2ncccc21 [Example 21] | 45.2 |
| CC(C)OC(=O)N1CCC(Oc2ncnc(N3CCc4cc(S(C)(=O)=O)ccc43)c2C#N)CC1 [Example 6] | 94.2 |
| CC(C)OC(=O)N1CCC(Oc2cc(N3CCc4cc(S(C)(=O)=O)ccc43)ncn2)CC1 [Example 3] | 107 |

====

# Assayed Target: human GPR119 (Homo sapiens)
# Sequence (Q8TDV5 1-335): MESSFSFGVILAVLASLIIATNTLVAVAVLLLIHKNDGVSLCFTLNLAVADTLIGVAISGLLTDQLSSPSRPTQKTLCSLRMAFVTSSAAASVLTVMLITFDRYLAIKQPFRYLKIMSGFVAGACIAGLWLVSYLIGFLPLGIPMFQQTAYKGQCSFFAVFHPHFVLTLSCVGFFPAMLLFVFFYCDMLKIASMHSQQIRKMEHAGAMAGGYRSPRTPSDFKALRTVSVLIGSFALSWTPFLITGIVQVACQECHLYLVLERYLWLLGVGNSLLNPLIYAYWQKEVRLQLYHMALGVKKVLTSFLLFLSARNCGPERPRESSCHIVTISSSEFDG
# Test Method Notes: β-Lactamase reporter functional assay (hGPR119 HEK293-CRE beta-lactamase cells)
# Type: cell-based
# Design: host or cells: HEK293-CRE beta-lactamase
# Test Conditions: hGPR119 HEK293-CRE beta-lactamase cells, 16 h incubation; each line a separate determination; read-out: Human B-lactamase Functional EC50
Measure Name: EC50 (nM)

| Compound | Assayed Target | Unit Spec | Meas Value |
| --- | --- | --- | --- |
| Cc1c(O[C@H]2[C@@H]3COC[C@H]2CN(C(=O)OC(C)C)C3)ncnc1N1CCc2cc(S(C)(=O)=O)ccc21 [Example 24] | human GPR119 (Homo sapiens) | nM | 111 |
| CC(C)OC(=O)N1CCC(Oc2cc(N3CCc4cc(S(=O)(=O)CCO)ccc43)ncn2)CC1 [Example 11] | human GPR119 (Homo sapiens) | nM | 40.7 |
| COc1c(OC2CCN(C(=O)OC(C)C)CC2)ncnc1N1CCc2cc(S(C)(=O)=O)ccc21 [Example 7] | human GPR119 (Homo sapiens) | nM | 96.6 |
